System: PC3
Assay: Cytotoxic activity on PC3
Type: cell-based
Settings: Homo sapiens, PC-3; 72 hours of incubation; read-out: Cytotoxicity IC50 PC3
MEASUREMENT_LABEL: IC50 (nM)
Write the number in nM without appending the unit.

Briefly, IC50 measured for C=C(c1ccc(OC)c(/C=C/C(=O)NO)c1)c1cc(OC)c(OC)c(OC)c1 : 2.4

====

Test system: HCT116
Experiment: Cytotoxic activity on HCT116
Assay type: cell-based
Details: Homo sapiens, HCT-116; 72 hours of incubation; read-out: HCT116 IC50
Would you kindly list IC50 for each of these compounds?
Answer with the figure and its unit, nothing else.

Briefly, IC50 measured for C=C(c1cc(OC)c(OC)c(OC)c1)c1ccc2c(c1)c(/C=C/C(=O)NO)cn2C [Compound 11] : 2.2 nM

Briefly, IC50 measured for C=C(c1ccc(OC)c(C#CCCCC(=O)NO)c1)c1cc(OC)c(OC)c(OC)c1 [Compound 4] : 372 nM

Briefly, IC50 measured for C=C(c1cc(OC)c(OC)c(OC)c1)c1ccc2c(c1)c(C(=O)NO)cn2C [Compound 25] : 30 nM

====

System: BxPC3
Test: Cytotoxic activity on BxPC3
Assay type: cell-based
Conditions: Homo sapiens, BXPC-3; 72 hours of incubation; read-out: Cytotoxicity IC50 BxPC3
MEASUREMENT_LABEL: IC50 (nM)
Write the number in nM without appending the unit.

So the reported IC50 for C=C(c1ccc(OC)c(/C=C/C(=O)NO)c1)c1cc(OC)c(OC)c(OC)c1 , on BxPC3, turned out to be 2.9

====

Tested on: other human tumour lines
Experiment: Cytotoxicity to other human tumour lines (panel)
Assay type: cell-based
Settings: A549, K562, MCF7, PC3, U87, U2OS, SOJ6, BxPC-3, MiaPaCa-2, read-out: IC50 values across other human tumour lines
pIC50: −log10 of the molar value.
MEASUREMENT_LABEL: pIC50

So the reported pIC50 for C=C(c1ccc(OC)c(/C=C/C(=O)NO)c1)c1cc(OC)c(OC)c(OC)c1 [Compound 2] , on other human tumour lines, turned out to be 8.17 to 8.80

====

Test system: HCT116
Assay: Cytotoxic activity on HCT116
Type: cell-based
Conditions: Homo sapiens, HCT-116; 72 hours of incubation; read-out: HCT116 IC50
Procedure: The cytotoxic activity of the prepared compounds was evaluated on various human cancer cell lines. The selected line was incubated at 37° C. in the presence of one of the novel compounds, added to the culture medium at various concentrations.
Would you kindly list log10 IC50 for each of these molecules?
Hi team, quick reminder: these entries are log10 of IC50 (nM).

Briefly, log10 IC50 measured for C=C(c1cc(OC)c(OC)c(OC)c1)c1ccc(OC)c(/C=C/C(=O)NO)n1 : 1.57

Briefly, log10 IC50 measured for C=C(c1cc(OC)c(OC)c(OC)c1)c1ccc2c(ccn2CCC(=O)NO)c1 : 2.59

Briefly, log10 IC50 measured for C=C(c1cc(OC)c(OC)c(OC)c1)c1ccc2c(c1)cc(C(=O)NO)n2C : 1.56

Briefly, log10 IC50 measured for C=C(c1cc(OC)c(OC)c(OC)c1)c1ccc(OC)cc1/C=C/C(=O)NO : 0.30

Briefly, log10 IC50 measured for C=C(c1cc(OC)c(OC)c(OC)c1)c1ccc(OC)c(C(=O)NO)c1 : 2.37

Briefly, log10 IC50 measured for C=C(c1ccc(OC)c(/C=C/C(=O)NO)c1)c1cc(OC)c(OC)c(OC)c1 : 0.40

Briefly, log10 IC50 measured for C=C(c1cc(OC)c(OC)c(OC)c1)c1ccc2c(c1)cc(/C=C/C(=O)NO)n2C : 1.08

Briefly, log10 IC50 measured for C=C(c1ccc(OC)c(C#CCCC(=O)NO)c1)c1cc(OC)c(OC)c(OC)c1 : 1.54

====

System: K562R
Assay: Cytotoxic activity on K562R
Assay type: cell-based
Details: Homo sapiens, K-562R; 72 hours of incubation; imatinib-resistant
Would you kindly list pIC50 for each of these compounds?
pIC50 is a log-scale quantity: -log10 of the concentration expressed in molar.

Briefly, pIC50 measured for C=C(c1ccc(OC)c(/C=C/C(=O)NO)c1)c1cc(OC)c(OC)c(OC)c1 : 8.80

Briefly, pIC50 measured for C=C(c1ccc(OC)c(C#CCCC(=O)NO)c1)c1cc(OC)c(OC)c(OC)c1 : 7.48
